Kindly supply the reported Ki values for the records listed here.
Molecular target: Serotonin 5-HT2A (human) (Homo sapiens (Human))
Reply with the number, then its unit.

Challenge: Using known records, supply Ki for C=CCN(CCc1c[nH]c2ccc(F)cc12)C(C)CC (centres unmarked)
Response given: 1660 nM

Challenge: Using known records, supply Ki for C=CCN(C)CCc1c[nH]c2ccc(F)cc12
Response given: 309 nM

* * *

Experiment: In vivo intravenous pharmacokinetic study in rats
Parameters: species or system Sprague Dawley rats
Conditions: male, Sprague Dawley, rat, plasma, iv, 1 mg/kg, mean, N=3, read-out: Vss
Readout label: Vd (L/kg)
# value in L/kg; strip the unit string

Challenge: Using known records, supply Vd for CCC(C)N(C)CCc1c[nH]c2ccc(F)cc12 (stereo not shown) [Example 3]
Response given: 0.999
